meta.source: patent US20260242478A1

target: T1, Anti-CD28 Fab (SEQ ID NOs: 696, 697); assay: phage ELISA; biotinylated anti-CD28 Fab on neutravidin plate, clonal phage detected with anti-M13-HRP
T1 construct: In the phage ELISA the Fab was biotinylated and captured on neutravidin coated plates
T1 sequence (VH, as listed by the source, chain 1 of 2): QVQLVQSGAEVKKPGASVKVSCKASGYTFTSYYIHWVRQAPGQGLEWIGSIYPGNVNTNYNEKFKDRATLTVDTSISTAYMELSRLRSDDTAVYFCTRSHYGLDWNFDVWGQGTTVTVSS
T1 sequence (VL, as listed by the source, chain 2 of 2): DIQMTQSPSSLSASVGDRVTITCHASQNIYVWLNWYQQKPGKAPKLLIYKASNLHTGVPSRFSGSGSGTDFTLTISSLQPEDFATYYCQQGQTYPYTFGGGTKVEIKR
Measured Phage binding ELISA, Anti-CD28 Fab signal by item
In your answer, state the number alone without any accompanying words.

### Prompt Phage binding ELISA, Anti-CD28 Fab signal for QCAAGASYPWPVCL (tested as crude clonal phage supernatant) [Phage-1455 peptide (SEQ ID NO: 1751)] ?
### Response 1.82

### Prompt Phage binding ELISA, Anti-CD28 Fab signal for TCSAGAHYEWPYCL (tested as crude clonal phage supernatant) [Phage-1454 peptide (SEQ ID NO: 1750)] ?
### Response 1.82

### Prompt Phage binding ELISA, Anti-CD28 Fab signal for TCSAGATFHWPQCF (tested as crude clonal phage supernatant) [Phage-1453 peptide (SEQ ID NO: 1749)] ?
### Response 1.83
